Hey, just so you know, these numbers are from the SangsterLogP compilation.

test: method code SF, from Hansch, C. & Leo, A. (1987). Log P database [Dataset]. Pomona College Medicinal Chemistry Project.
QUANTITY: logP

COMPOUND: OC(C1CO1)C(O)C1CO1 (stereo unspecified)
logP: -1.29

COMPOUND: O=[N+]([O-])c1ccsc1
logP: 1.55

Q: Name the recorded logP for O=C(CO)NCc1ccccc1 .
Result: 0.55

Q: Name the recorded logP for N#CCC(N)=C(C#N)C#N .
Result: -0.13

Q: Name the recorded logP for CC(=O)Oc1cccc(C(F)(F)F)c1 .
Result: 2.63

Q: Name the recorded logP for c1ccc2c(c1)CCC2 .
Result: 3.33

Q: Name the recorded logP for S=c1cc[nH]cc1 .
Result: 0.2

Q: Name the recorded logP for O=C(O)COc1ccc(Cl)c(I)c1 .
Result: 3.1

Q: Name the recorded logP for CON(C)C(=O)Nc1ccc2c(c1)Cc1ccccc1-2 .
Result: 3.67

====

Listing: logD of selected molecules
test: method code SF, from Hansch, C. & Leo, A. (1987). Log P database [Dataset]. Pomona College Medicinal Chemistry Project.; settings: pH 5.4
Number only, please.

MOLECULE: O=C(c1ccccc1)c1cccc(NS(=O)(=O)C(F)F)c1
QUANTITY: logD
EXPERIMENTAL RESULT: 2.86

Q: Name the recorded logD for COC(=O)c1cc2nc(S(=O)Cc3ncccc3C)[nH]c2cc1C (configuration not stated) .
Result: 2.4

====

test: method code SF, from Hansch, C. & Leo, A. (1987). Log P database [Dataset]. Pomona College Medicinal Chemistry Project.; settings: pH 6.0
QUANTITY: logD
Number only, please.

Q: Name the recorded logD for Cc1cc(N(C)S(=O)(=O)c2ccc(N)cc2)no1 .
Result: 1.75

====

experiment: method code SF, from Hansch, C. & Leo, A. (1987). Log P database [Dataset]. Pomona College Medicinal Chemistry Project.; settings: pH 12.0
Lab note: anything with logD below 3 is marked condition met; values at 3 or higher are marked condition not met.

Worked set:
COMPOUND: CC1(C)N=C(N)N=C(N)N1c1cccc([N+](=O)[O-])c1
CLASS ASSIGNMENT: condition met

COMPOUND: CCCCC1CC(C(=O)NC(C(C)Cl)C2OC(SC)C(O)C(O)C2O)N(CC)C1 (stereo not given)
CLASS ASSIGNMENT: condition not met

COMPOUND: CN(CCO)N=Nc1ccccc1
CLASS ASSIGNMENT: condition met

COMPOUND: CCCCCC1CN[C@H](C(=O)NC(C(C)Cl)[C@H]2O[C@H](SC)[C@H](O)[C@@H](O)[C@H]2O)C1 (stereo in doubt)
CLASS ASSIGNMENT: condition met

Q: Regarding CCCC1CC(C(=O)NC(C(C)Cl)C2OC(SCC)C(O)C(O)C2O)N(CC)C1 (stereo not given) , kindly confirm whether its logD is beneath 3.
Result: condition not met

====

assay: method code SF, from Hansch, C. & Leo, A. (1987). Log P database [Dataset]. Pomona College Medicinal Chemistry Project.; conditions: pH 13.0
Listing: logD of selected compounds
Number only, please.

For orientation, consider the following solved cases.
COMPOUND: CCCCOc1cccc(N2C(N)=NC(N)=NC2(C)C)c1
logD: 2.03
//
COMPOUND: c1ccc(N2CCCCC2)cc1
logD: 2.98
//
COMPOUND: COc1ccc(Cc2cnc(N)nc2N)c(OC)c1OC
logD: 1.52

Could you now consider this next compound?
Q: Name the recorded logD for CC1(C)N=C(N)N=C(N)N1c1ccc(Br)cc1 .
Result: 1.09

====

experiment: method code SF, from Hansch, C. & Leo, A. (1987). Log P database [Dataset]. Pomona College Medicinal Chemistry Project.; conditions: pH 11.0
QUANTITY: logD
Number only, please.

For orientation, consider the following solved cases.
SMILES RECORD: CN(C)Cc1cccnc1
logD: 0.49
//
SMILES RECORD: CC(C)NCc1cccnc1
logD: 0.82

Q: Name the recorded logD for CCNCc1cccnc1 .
Result: 0.76

Q: Name the recorded logD for CCNCCc1cccnc1 .
Result: 0.54

Q: Name the recorded logD for NCc1cccnc1 .
Result: -0.1

Q: Name the recorded logD for c1cncc(CN2CCCC2)c1 .
Result: 1.1

====

assay: method code SF, from Hansch, C. & Leo, A. (1987). Log P database [Dataset]. Pomona College Medicinal Chemistry Project.; details: pH 5.0
# binarize logD: threshold 1 inclusive, high side True, low side False

COMPOUND: CC(C)c1ccc(O)c(=O)cc1
CLASS ASSIGNMENT: True

COMPOUND: O=[N+]([O-])c1ccc2oncc2c1
CLASS ASSIGNMENT: True

Q: Is logD for O=c1cccccc1O at or above 1?
Result: False

Q: Is logD for CC(C)c1cccc(O)c(=O)c1 at or above 1?
Result: True

Q: Is logD for O=S(Cc1ccccn1)c1nc2ccccc2[nH]1 (stereo not given) at or above 1?
Result: True

====

test: method code SF, from Hansch, C. & Leo, A. (1987). Log P database [Dataset]. Pomona College Medicinal Chemistry Project.; conditions: pH 9.2
QUANTITY: logD
Number only, please.

Q: Name the recorded logD for CC(C)C#CN(C)C(C)C .
Result: 2.29

====

experiment: method code SF, from Hansch, C. & Leo, A. (1987). Log P database [Dataset]. Pomona College Medicinal Chemistry Project.
Lab note: anything with logP below 2 is marked fulfilled; values at 2 or higher are marked not fulfilled.

COMPOUND: O=C1C(NCC(O)CO)=C(N2CC2)C(=O)C(NCC(O)CO)=C1N1CC1 (centres undefined)
CLASS ASSIGNMENT: fulfilled

COMPOUND: COc1ccc(-c2ncc[nH]2)c(OC)c1
CLASS ASSIGNMENT: fulfilled

COMPOUND: O=C(CCc1ccccc1)Nc1ccc(Cl)c(Cl)c1
CLASS ASSIGNMENT: not fulfilled

COMPOUND: NS(=O)(=O)c1ccc(C(=O)c2ccncc2)cc1
CLASS ASSIGNMENT: fulfilled

COMPOUND: CN(C(=O)CC[N+](=O)[O-])c1ccc(S(=O)(=O)N(C)C)cc1
CLASS ASSIGNMENT: fulfilled

Q: Regarding c1ccc(N2CCOCC2)cc1 , kindly confirm whether its logP is beneath 2.
Result: fulfilled

Q: Regarding [N-]=[N+]=Nc1ccccc1 , kindly confirm whether its logP is beneath 2.
Result: not fulfilled

Q: Regarding CCC(=O)OCCOc1ccc(C=O)cc1OC , kindly confirm whether its logP is beneath 2.
Result: fulfilled

Q: Regarding Cn1ccc(=O)[nH]c1=O , kindly confirm whether its logP is beneath 2.
Result: fulfilled

Q: Regarding CC1(C)OCCO1 , kindly confirm whether its logP is beneath 2.
Result: fulfilled

Q: Regarding C(=C\c1ccccn1)/c1ccccn1 , kindly confirm whether its logP is beneath 2.
Result: not fulfilled

Q: Regarding COc1ccccc1OC , kindly confirm whether its logP is beneath 2.
Result: fulfilled

====

assay: method code SF, from Hansch, C. & Leo, A. (1987). Log P database [Dataset]. Pomona College Medicinal Chemistry Project.; conditions: pH 13.0
QUANTITY: logD
Number only, please.

MOLECULE: CCOc1cc(Cc2cnc(N)nc2N)cc(OCC)c1
logD: 2.52
--
MOLECULE: CCCCN(CCCC)CC(O)c1ccccc1 (centres undefined)
logD: 3.16
--
MOLECULE: CC1(C)N=C(N)N=C(N)N1c1ccc(I)cc1
logD: 1.39
--
MOLECULE: CNCc1ccccc1
logD: 1.52
--
MOLECULE: Cc1ccc(N2C(N)=NC(N)=NC2(C)C)cc1
logD: 0.85
--
MOLECULE: CC1(C)N=C(N)N=C(N)N1c1ccc(F)cc1
logD: 0.37
--
MOLECULE: CC1(C)N=C(N)N=C(N)N1c1ccc(C(F)(F)F)cc1
logD: 1.22
--
MOLECULE: NCc1ccc([N+](=O)[O-])cc1
logD: 1.06

Q: Name the recorded logD for CC1(C)N=C(N)N=C(N)N1c1cccc(COc2cccc(NC(N)=O)c2)c1 .
Result: 0.9

Q: Name the recorded logD for CC1(C)N=C(N)N=C(N)N1c1ccccc1 .
Result: 0.28

Q: Name the recorded logD for CN[C@@H](C)Cc1ccccc1 .
Result: 2.07

Q: Name the recorded logD for Nc1nc(N)c2ncn(COCCO)c2n1 .
Result: -1.06

Q: Name the recorded logD for CC1(C)N=C(N)N=C(N)N1c1cccc(C#N)c1 .
Result: -0.24

Q: Name the recorded logD for NNc1ccc(Br)cc1 .
Result: 1.39

====

assay: method code SF, from Hansch, C. & Leo, A. (1987). Log P database [Dataset]. Pomona College Medicinal Chemistry Project.
Non-standard residues stand in square brackets, D forms with d. Residues, ends and D or L forms follow the SMILES beside them. ξ: configuration not given here. *: point of attachment. ξF = NC(Cc1ccccc1)C(=O)O; Cbz = O=C(OCc1ccccc1)*
Listing: logP of selected compounds
Number only, please.

For orientation, consider the following solved cases.
COMPOUND: O=Nc1ccc(O)c2ccccc12
logP: 2.27
--
COMPOUND: COc1cccc(C(N)=O)c1
logP: 0.85
--
COMPOUND: O=[N+]([O-])c1cccc(I)c1
logP: 2.94
--
COMPOUND: O=C(Nc1ccccc1)NC1CC(O)C(CO)OC1O (stereo unspecified)
logP: -0.61
--
COMPOUND: CCNC(=O)Nc1ccccc1
logP: 1.64

Q: Name the recorded logP for O=[N+]([O-])c1ccc2[nH]c(CCCCCCc3nc4cc([N+](=O)[O-])ccc4[nH]3)nc2c1 .
Result: 1.51

Q: Name the recorded logP for C=CCO .
Result: 0.17

Q: Name the recorded logP for O=C1C(NCCO)=C(N2CC2)C(=O)C(NCCO)=C1N1CC1 .
Result: -1.48

Q: Name the recorded logP for c1ccc(CNc2ccccc2)cc1 .
Result: 3.13

Q: Name the recorded logP for CCOC(=O)C(C#N)=Cc1ccccc1 .
Result: 2.43

Q: Name the recorded logP for CCOC(=O)C(=Cc1ccc(Cl)c(Cl)c1)C(C)=O .
Result: 3.92

Q: Name the recorded logP for CCCCCCC1CCC(=O)O1 (stereo unspecified) .
Result: 2.72

Q: Name the recorded logP for CC1=Nc2cc([N+](=O)[O-])c(Cl)cc2S(=O)(=O)N1 .
Result: 1.42

Q: Name the recorded logP for O=c1cc[nH]c2ccccc12 .
Result: 0.58

Q: Name the recorded logP for CCC(=O)OCC(=O)[C@@]1(OC(=O)CC)[C@H](C)C[C@H]2[C@@H]3C[C@H](F)C4=CC(=O)C(Cl)=C[C@]4(C)[C@@]3(F)[C@@H](O)C[C@@]21C .
Result: 4.22

Q: Name the recorded logP for C=C1C[C@]23C[C@@]1(O)CC[C@H]2[C@@]12C=C[C@H](O)[C@@](C)(C(=O)O1)[C@H]2[C@@H]3C(=O)O .
Result: 0.24

Q: Name the recorded logP for O=C(NCC(O)c1ccc([N+](=O)[O-])cc1)C(F)(F)F (stereo unspecified) .
Result: 1.46

Q: Name the recorded logP for c1cnc2ccc3ncccc3c2c1 .
Result: 2.05

Q: Name the recorded logP for CCc1ccc2c(c1)C(=O)c1ccc(NC(C)=O)cc1S2(=O)=O .
Result: 3.44

Q: Name the recorded logP for CCOC(=O)C(=Cc1ccc(O)c(OC)c1)C(=O)OCC .
Result: 2.89

Q: Name the recorded logP for CC(C)[C@H](NC(=O)C(Cc1ccccc1)NC(=O)OCc1ccccc1)C(=O)O (stereo partly specified) (Cbz-[ξF]-Val-OH) .
Result: 2.88

Q: Name the recorded logP for CC(=O)Nc1cccc(C(C)=O)c1 .
Result: 1.1

Q: Name the recorded logP for CC1(O)OC(=O)c2ccccc21 (stereo unspecified) .
Result: 0.81

Q: Name the recorded logP for NC(=O)c1cccc(F)c1 .
Result: 0.91

Q: Name the recorded logP for N#CN=[N+]([O-])c1ccc(C(F)(F)F)cc1 .
Result: 2.47

Q: Name the recorded logP for Cn1nnnc1SCc1ccccc1 .
Result: 1.63
